Assay Protocol: Human HepG2 cell viability assay in 384 well format
Type: toxicity, cell-based
Design: dose 125 nL, time 70.5 hour; concentration not given beside the values
Run Parameters: HepG2 cells, read-out: Inhibition
Parameter Measured: cytotoxicity at 70.5 h (%)

> print(dat)
                                   molecule      parameter.measured    val
1  CN(Cc1ccco1)[C@@H]1CN(C(=O)c2ccnnc2)[C@@H]2CCCO[C@H]12  cytotoxicity at 70.5 h   1.48
2  Cc1ccc(C(=O)NC2CCCN(C)C2)c(=O)[nH]1 (stereo unspecified)  cytotoxicity at 70.5 h  -12.5
3  CCOc1ccccc1C(=O)N1CC(=O)N(C2CCC2)CC(O)C1 (stereo unspecified)  cytotoxicity at 70.5 h  -4.81
4               COc1ccnc(N(C)Cc2csc(C)n2)n1  cytotoxicity at 70.5 h  -6.22
5  N#Cc1cccnc1NCCNC(=O)N1CCN2CCCCC2C1 (stereo unspecified)  cytotoxicity at 70.5 h   13.6
6  CC1=Nc2c(c(=O)[nH]n2C(C)C)C(c2ccc3nccnc3c2)S1 (stereo unspecified)  cytotoxicity at 70.5 h  -2.49

====

Assay Protocol: Human HepG2 cell viability assay in 384 well format
Format: toxicity, cell-based
Set-up: dose 125 nL, time 70.5 hour; concentration not given beside the values
Run Parameters: HepG2 cells, read-out: Inhibition
Measured cytotoxicity at 70.5 h values are reported for all entries that follow.
Parameter Measured: cytotoxicity at 70.5 h

> print(dat)
                                    molecule      val
 1  Cc1cc(CNC(=O)NC(C)c2ccncc2)no1 (centres undefined)    -9.9%
 2  COCCN1CCC(CN(CC2CCCO2)C(=O)Cn2cccn2)CC1 (centres undefined)   -4.66%
 3  CCCC(=O)N1CCC(c2nn(C)c(=O)n2-c2ccccc2)CC1   -10.4%
 4  COCC(=O)N1CC[C@@H](N2CCN(C)CC2)[C@@H]1Cc1ccccc1    9.62%
 5     COCCCN(Cc1cc(O)nc2ccccc12)C(=O)NC(C)C   -13.5%
 6  O=C(NCc1cccnc1)[C@@H]1C[C@H]2[C@H](CCN2c2ncccn2)O1      -3%
 7  c1ccc(-c2nc3c(c(NCCc4c[nH]cn4)n2)CCNC3)cc1   -12.1%
 8  Cc1noc(CCCC(=O)N2CCCCC2c2nccs2)n1 (centres undefined)      32%
 9  Cc1noc(C2(C)CCCN(C(=O)c3cnn(C)c3)C2)n1 (centres undefined)   -7.96%
10    Cc1ccc(-c2ccc(C(=O)NCC(N)=O)c(F)c2)cc1    1.46%
11  CN(Cc1coc(-c2ccccc2)n1)CC1CCCN1c1cccnn1 (centres undefined)    4.57%
12  Cn1ccnc1CN(CCO)C(=O)C1CCN(C(=O)C2CC2)CC1   0.876%
13          CN(CCN1CCCC1=O)S(=O)(=O)CC1CCCC1   -4.62%
14  CC(=O)N1C[C@H](NS(=O)(=O)c2cccc(Cl)c2)[C@@H](C(C)C)C1   -9.51%
15  CCc1n[nH]c(C2CN(C(=O)Cn3ccccc3=O)CCO2)n1 (centres undefined)    21.1%
16  N#Cc1ccc(CNCC(C(=O)N2CCOCC2)c2ccccc2)cc1 (centres undefined)      -3%
17  Cc1nc(NC(=O)NC2CC(=O)N(C(C)C)C2)nn1C(C)C (centres undefined)  -0.942%
18      Cc1cnc(N2CC3(CCN(Cc4cccnc4)C3)C2)nc1   -13.4%
19  CCOC1COC2(CCN(Cc3cccc(F)c3)CC2)C1 (centres undefined)     -12%
20                 Nc1nccc(-c2cccc3ccnn23)n1   -1.89%
21  O=C(CN1CCc2cncnc2C1)NC(c1ccccc1)C1CC1 (centres undefined)   -2.84%
22       Cc1n[nH]cc1CNCC1(c2cccc(F)c2)CCOCC1   -5.63%
23  COc1ccc(F)cc1CN1CCC(O)(CN2CCCCC2)C1 (centres undefined)   -6.56%
24     Cc1cc(C)c(CNc2cnc3ccccc3n2)c(=O)[nH]1    59.4%
